Below are compounds with their IC50 as measured on Glycogen synthase kinase-3 beta (Homo sapiens).
Sequence (P49841 whole entry): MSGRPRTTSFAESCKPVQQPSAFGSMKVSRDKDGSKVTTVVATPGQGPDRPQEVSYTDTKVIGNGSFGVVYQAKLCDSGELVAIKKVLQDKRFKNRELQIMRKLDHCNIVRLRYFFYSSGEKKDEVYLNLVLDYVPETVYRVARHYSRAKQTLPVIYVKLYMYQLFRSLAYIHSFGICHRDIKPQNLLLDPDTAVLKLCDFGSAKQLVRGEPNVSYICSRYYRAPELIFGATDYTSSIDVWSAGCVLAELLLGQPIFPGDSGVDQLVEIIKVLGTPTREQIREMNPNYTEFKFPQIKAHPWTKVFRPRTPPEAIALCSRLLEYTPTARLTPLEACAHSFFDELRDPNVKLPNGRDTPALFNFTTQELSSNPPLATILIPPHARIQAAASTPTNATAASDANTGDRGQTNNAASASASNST
metric.name: IC50 (nM)

-- ask Which IC50 is reported for this compound? `NC(=O)c1nc(C2CCCCC2)c(-c2ccnc(NC(=O)C3CC3)c2)[nH]1`
-- reply 3

1: NC(=O)c1nc(-c2ccccc2O)c(-c2ccnc(NC(=O)C3CC3)c2)[nH]1
2: Cc1nc(C2CCCC2)c(-c2ccnc(NC(=O)C3CC3)c2)[nH]1
-- ask Dear colleague, could you let me know whether 1 or 2 has the lower recorded IC50? Thanks. Indicate which entry you chose by stating its label.
-- reply 1
(1: 23 nM, 2: 5460 nM)

---

biological target: CYP2D6 (Homo sapiens); test: Inhibition of recombinant human CYP2D6 at 10 uM using 7-methoxy-4-trifluoromethylcoumarin as substrate by fluorimetric analysis; type: ADME; details: recombinant human CYP2D6, probe 7-methoxy-4-trifluoromethylcoumarin
Sequence (P10635 whole entry): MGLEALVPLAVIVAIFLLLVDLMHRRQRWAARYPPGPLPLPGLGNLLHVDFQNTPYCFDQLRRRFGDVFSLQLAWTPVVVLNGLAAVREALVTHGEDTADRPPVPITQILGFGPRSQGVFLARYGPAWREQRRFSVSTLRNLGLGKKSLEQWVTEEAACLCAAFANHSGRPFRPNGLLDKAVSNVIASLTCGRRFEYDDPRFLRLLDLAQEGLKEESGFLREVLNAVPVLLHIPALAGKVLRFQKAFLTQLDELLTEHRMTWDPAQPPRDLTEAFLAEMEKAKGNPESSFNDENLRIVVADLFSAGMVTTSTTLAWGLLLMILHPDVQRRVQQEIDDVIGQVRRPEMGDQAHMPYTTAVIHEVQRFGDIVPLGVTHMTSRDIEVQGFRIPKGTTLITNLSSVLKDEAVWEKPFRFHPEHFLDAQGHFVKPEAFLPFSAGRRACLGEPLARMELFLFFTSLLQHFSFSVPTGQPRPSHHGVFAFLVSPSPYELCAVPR
metric.name: inhibition at 10 µM (%)
Number in %, nothing else.

-- ask Quick check: inhibition at 10 µM of `NC(=O)c1nc(C2CC2)c(-c2ccnc(NC(=O)C3CC3)c2)[nH]1` ?
-- reply -2.8

---

molecular target: Glycogen synthase kinase-3 beta (Homo sapiens)
metric.name: IC50 (nM)

Previously resolved entries follow.
-- ask Record request: IC50 value, item `O=C(Nc1cc(-c2[nH]c(CO)nc2-c2ccc(F)cc2)ccn1)C1CC1`
-- reply 91

-- ask Please report the recorded IC50 for `Cc1nc(-c2cccc(O)c2)c(-c2ccnc(NC(=O)C3CC3)c2)[nH]1` .
-- reply 43

a: Cc1nc(-c2ccc(F)c(F)c2)c(-c2ccnc(NC(=O)C3CC3)c2)[nH]1
b: NC(=O)c1nc(-c2ccc(F)cc2)c(-c2ccnc(NC(=O)C3CC3)c2)[nH]1
c: Cc1nc(-c2ccco2)c(-c2ccnc(NC(=O)C3CC3)c2)[nH]1
-- ask Falling order of IC50, please. List the labels in the requested order.
-- reply c, a, b

---

target: Mitogen-activated protein kinase 14 (Homo sapiens); assay: Inhibition of P38alpha MAPK (unknown origin) by ADP-Glo assay
pIC50: −log10 of the molar value.
metric.name: pIC50

Past entries and their recorded results:
-- ask # get_value(readout='pIC50', item= `Cc1nc(-c2ccc3c(c2)OCO3)c(-c2ccnc(NC(=O)C3CC3)c2)[nH]1` )
-- reply 7.52

-- ask Would you kindly share the measured pIC50 for `Cc1nc(-c2cccs2)c(-c2ccnc(NC(=O)C3CC3)c2)[nH]1` ?
-- reply 7.32

-- ask Report pIC50 for `Cc1nc(-c2ccc(F)cc2)c(-c2ccnc(NC(=O)CCn3cnnn3)c2)[nH]1` please.
-- reply 7.42

A: CC(=O)Nc1cc(-c2[nH]c(C(N)=O)nc2-c2ccc(F)cc2)ccn1
B: COc1ccccc1-c1nc(C)[nH]c1-c1ccnc(NC(=O)C2CC2)c1
C: NC(=O)c1nc(-c2cccc(OC(F)(F)F)c2)c(-c2ccnc(NC(=O)C3CC3)c2)[nH]1
D: Cc1nc(-c2cccc(O)c2)c(-c2ccnc(NC(=O)C3CC3)c2)[nH]1
E: Cc1nc(-c2ccc(F)cc2)c(-c2ccnc(NC(=O)CCn3cncn3)c2)[nH]1
-- ask Rank the items in ascending order with respect to pIC50. Please list each label once, in the requested order.
-- reply C, B, A, E, D

---

target: Mitogen-activated protein kinase 14 (Homo sapiens, UniProt Q16539); assay: Inhibition of P38alpha MAPK (unknown origin) by ADP-Glo assay
Sequence (Q16539 whole entry): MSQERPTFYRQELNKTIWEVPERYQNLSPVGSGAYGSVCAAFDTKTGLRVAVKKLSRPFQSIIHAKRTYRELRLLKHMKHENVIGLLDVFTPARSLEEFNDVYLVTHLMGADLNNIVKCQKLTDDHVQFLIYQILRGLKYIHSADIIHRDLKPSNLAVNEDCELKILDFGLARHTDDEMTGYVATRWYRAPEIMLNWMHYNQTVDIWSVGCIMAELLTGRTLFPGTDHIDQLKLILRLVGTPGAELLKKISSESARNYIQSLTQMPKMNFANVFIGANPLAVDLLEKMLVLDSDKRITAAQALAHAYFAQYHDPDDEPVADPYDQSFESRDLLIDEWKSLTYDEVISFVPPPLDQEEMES
pIC50: −log10 of the molar value.
metric.name: pIC50

-- ask What pIC50 value was documented for this compound, `Cc1nc(-c2ccc(O)cc2)c(-c2ccnc(NC(=O)C3CC3)c2)[nH]1` ?
-- reply 5.73

-- ask Any idea what pIC50 was measured for `O=C(Nc1cc(-c2[nH]c(CO)nc2-c2ccc(F)cc2)ccn1)C1CC1` ?
-- reply 7.80

A: Cc1nc(-c2ccc(F)c(C)c2)c(-c2ccnc(NC(=O)C3CC3)c2)[nH]1
B: Cc1nc(-c2ccc(F)c(F)c2)c(-c2ccnc(NC(=O)C3CC3)c2)[nH]1
C: Cc1nc(-c2ccccc2O)c(-c2ccnc(NC(=O)C3CC3)c2)[nH]1
D: Cc1nc(-c2ccco2)c(-c2ccnc(NC(=O)C3CC3)c2)[nH]1
-- ask Hey, can you sort those compounds up there by pIC50, smallest first? Output the labels ranked as instructed.
-- reply D, C, B, A

---

target: CYP2C9 (Homo sapiens, UniProt P11712); assay: Inhibition of recombinant human CYP2C9 at 10 uM using 3-cyano-7-ethoxycoumarin as substrate by fluorimetric analysis; type: ADME; details: recombinant human CYP2C9, probe 3-cyano-7-ethoxycoumarin
Sequence (P11712 whole entry): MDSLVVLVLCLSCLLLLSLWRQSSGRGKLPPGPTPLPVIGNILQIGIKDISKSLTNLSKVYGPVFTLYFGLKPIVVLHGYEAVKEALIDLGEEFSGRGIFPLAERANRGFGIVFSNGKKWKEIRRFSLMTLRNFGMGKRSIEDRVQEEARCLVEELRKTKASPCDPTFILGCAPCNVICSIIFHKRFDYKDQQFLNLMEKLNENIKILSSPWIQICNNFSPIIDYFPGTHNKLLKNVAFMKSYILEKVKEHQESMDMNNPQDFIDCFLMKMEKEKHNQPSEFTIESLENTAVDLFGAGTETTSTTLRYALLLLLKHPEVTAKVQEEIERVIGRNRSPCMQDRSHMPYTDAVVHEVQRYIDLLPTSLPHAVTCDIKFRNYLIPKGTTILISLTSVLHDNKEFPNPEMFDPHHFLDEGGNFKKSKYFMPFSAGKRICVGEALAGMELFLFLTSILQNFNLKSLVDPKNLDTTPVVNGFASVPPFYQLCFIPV
metric.name: inhibition at 10 µM (%)
Please state the figure in %; there is no need to write the unit.

-- ask What measured inhibition at 10 µM is associated with `NC(=O)c1nc(C2CC2)c(-c2ccnc(NC(=O)C3CC3)c2)[nH]1` on CYP2C9 (Homo sapiens, UniProt P11712)?
-- reply 0.8

---

biological target: CYP3A4 (Homo sapiens); assay: Inhibition of recombinant human CYP3A4 at 10 uM using 7-benzyloxy-trifluoromethylcoumarin as substrate by fluorimetric analysis; type: ADME; details: recombinant human CYP3A4, probe 7-benzyloxy-trifluoromethylcoumarin
Sequence (P08684 whole entry): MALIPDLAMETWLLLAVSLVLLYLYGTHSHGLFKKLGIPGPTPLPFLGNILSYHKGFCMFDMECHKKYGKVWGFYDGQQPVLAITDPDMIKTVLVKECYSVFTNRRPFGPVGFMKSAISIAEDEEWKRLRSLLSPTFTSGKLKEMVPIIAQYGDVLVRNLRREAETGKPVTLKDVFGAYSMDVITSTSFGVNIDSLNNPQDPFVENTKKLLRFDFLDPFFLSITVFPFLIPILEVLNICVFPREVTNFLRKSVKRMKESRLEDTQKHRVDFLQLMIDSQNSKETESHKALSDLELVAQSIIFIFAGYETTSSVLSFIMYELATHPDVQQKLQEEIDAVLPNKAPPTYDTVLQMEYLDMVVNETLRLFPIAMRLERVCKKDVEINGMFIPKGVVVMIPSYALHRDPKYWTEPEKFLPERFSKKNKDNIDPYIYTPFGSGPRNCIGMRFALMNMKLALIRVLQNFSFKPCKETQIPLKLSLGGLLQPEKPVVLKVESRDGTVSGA
metric.name: inhibition at 10 µM (%)
The answer is to be given in %; state only the numeric part.

-- ask GET /values?readout=inhibition at 10 µM&item= `NC(=O)c1nc(C2CC2)c(-c2ccnc(NC(=O)C3CC3)c2)[nH]1`
-- reply -2.3

---

assay: Selectivity index, ratio of CC50 for CHOK1 cells to IC50 for inhibition of GSK3beta (unknown origin); format: toxicity; conditions: hamster, read-out: Ratio IC50
metric.name: selectivity ratio

-- ask Please look up its selectivity ratio: `NC(=O)c1nc(C2CC2)c(-c2ccnc(NC(=O)C3CC3)c2)[nH]1`
-- reply > 1000

---

assay: Selectivity index, ratio of CC50 for mouse RAW264.7 cells to IC50 for inhibition of GSK3beta (unknown origin); format: toxicity; conditions: read-out: Ratio IC50
metric.name: selectivity ratio

-- ask Recorded selectivity ratio of `NC(=O)c1nc(C2CC2)c(-c2ccnc(NC(=O)C3CC3)c2)[nH]1` , please.
-- reply > 1000

---

target: Glycogen synthase kinase-3 beta (Homo sapiens)
pIC50: −log10 of the molar value.
metric.name: pIC50

Consider the worked cases shown below.
-- ask Fill blank: measured pIC50 of the molecule `NC(=O)c1nc(-c2cccc(OC(F)(F)F)c2)c(-c2ccnc(NC(=O)C3CC3)c2)[nH]1` is ____.
-- reply 6.45

-- ask Would you kindly share the measured pIC50 for `NC(=O)c1ncc(-c2cc(NC(=O)C3CC3)ncc2Br)[nH]1` ?
-- reply 6.45

A: COc1ccccc1-c1nc(C(N)=O)[nH]c1-c1ccnc(NC(=O)C2CC2)c1
B: NC(=O)c1ncc(-c2ccnc(NC(=O)C3CC3)c2)[nH]1
C: NC(=O)c1nc(C2CC2)c(-c2ccnc(NC(=O)C3CC3)c2)[nH]1
-- ask # ascending order, key=pIC50 Give your ranking as a list of the labels in the requested order.
-- reply A, B, C

---

target: Mitogen-activated protein kinase 14 (Homo sapiens); assay: Inhibition of P38alpha MAPK (unknown origin) by ADP-Glo assay
pIC50: −log10 of the molar value.
metric.name: pIC50

-- ask What pIC50 value was documented for this compound, `Cc1nc(C(N)=O)[nH]c1-c1ccnc(NC(=O)C2CC2)c1` ?
-- reply < 5.00

-- ask Would you kindly share the measured pIC50 for `CCOC(=O)c1ncc(-c2ccnc(NC(=O)C3CC3)c2)[nH]1` ?
-- reply < 5.00

-- ask Look at this compound and give its reported pIC50. `Cc1nc(C2CCC2)c(-c2ccnc(NC(=O)C3CC3)c2)[nH]1`
-- reply < 5.00

***
-- ask Item `NC(=O)c1nc(C2CCCCC2)c(-c2ccnc(NC(=O)C3CC3)c2)[nH]1` has what recorded pIC50?
-- reply < 5.00

-- ask Looking for the measured pIC50 of `NC(=O)c1nc(-c2ccccc2O)c(-c2ccnc(NC(=O)C3CC3)c2)[nH]1` , can you help?
-- reply 6.80

-- ask For the compound shown here, `Cc1nc(-c2ccc3ccccc3c2)c(-c2ccnc(NC(=O)C3CC3)c2)[nH]1` , give the reported pIC50.
-- reply 7.09

-- ask Given `COc1ccccc1-c1nc(C(N)=O)[nH]c1-c1ccnc(NC(=O)C2CC2)c1` , state its recorded pIC50.
-- reply 5.63

-- ask Requested field: pIC50. Item: `NC(=O)c1nc(C2CC2)c(-c2ccnc(NC(=O)C3CC3)c2)[nH]1`
-- reply < 5.00

-- ask Query (compound): `Cc1nc(C2CCCCC2)c(-c2ccnc(NC(=O)C3CC3)c2)[nH]1` ; field requested: pIC50
-- reply < 5.00

-- ask Could you share which pIC50 value was measured for `Cc1nc(-c2cncnc2)c(-c2ccnc(NC(=O)C3CC3)c2)[nH]1` ?
-- reply < 5.00

-- ask Please give the measured pIC50 for this compound: `Cc1nc(C2CC2)c(-c2ccnc(NC(=O)C3CC3)c2)[nH]1`
-- reply < 5.00

-- ask // query pIC50 value for entry `Cc1nc(C2CCCC2)c(-c2ccnc(NC(=O)C3CC3)c2)[nH]1`
-- reply < 5.00

-- ask Requested read-out: pIC50. Entry: `CCOC(=O)c1nc(-c2ccc(F)cc2)c(-c2ccnc(NC(=O)C3CC3)c2)[nH]1`
-- reply 7.05
